Listed here: items and their measured MIC.
# Tested on: G(−) bacterial strains
# experiment notes: Dilution antimicrobial susceptibility tests (MIC, NCCLS agar dilution / broth dilution)
# Type: cell-based, Gram-negative organisms
# cond: strain #25 Shigella dysenteriae; unit assumed

molecule: C[C@@H](O)C1C(=O)N2C(C(=O)O)=C(CN3CC[C@H](CNC(=N)N)C3)[C@H](C)C12 (stereo partly drawn)
endpoint unit: µg/mL
MIC: 1
--
molecule: CC(O)C1C(=O)N2C(C(=O)O)=C(CN3CCC(C(=N)N)C3)C(C)C12 (stereo not drawn) [Compound 185a]
endpoint unit: µg/mL
MIC: 0.13
--
molecule: C[C@@H](O)C1C(=O)N2C(C(=O)O)=C(CN3CC[C@@H](NC(=N)N)C3)[C@H](C)C12 (stereo partly drawn)
endpoint unit: µg/mL
MIC: 1
--
molecule: CC(O)C1C(=O)N2C(C(=O)O)=C(CN3CC(O)C(C(=N)N)C3)C(C)C12 (mixture of isomers) [Compound 185b]
endpoint unit: µg/mL
MIC: 0.063
--
molecule: C[C@@H](O)C1C(=O)N2C(C(=O)O)=C(CN3CC[C@@H](N)C3)[C@H](C)C12 (stereo partly drawn)
endpoint unit: µg/mL
MIC: 0.5
--
molecule: C[C@@H](O)C1C(=O)N2C(C(=O)O)=C(CN3CC[C@H](O)C3)[C@H](C)C12 (stereo partly drawn)
endpoint unit: µg/mL
MIC: 0.5
--
molecule: CN[C@H]1CCN(CC2=C(C(=O)O)N3C(=O)C([C@@H](C)O)C3[C@H]2C)C1 (stereo partly drawn)
endpoint unit: µg/mL
MIC: 0.5
--
molecule: C[C@@H](O)C1C(=O)N2C(C(=O)O)=C(CN3CCC(NC(=O)CNC(=N)N)C3)[C@H](C)C12 (stereo partly drawn)
endpoint unit: µg/mL
MIC: 1
--
molecule: C[C@@H](O)C1C(=O)N2C(C(=O)O)=C(CN3CC[C@H](N(C)C)C3)[C@H](C)C12 (stereo partly drawn)
endpoint unit: µg/mL
MIC: 0.5
--
molecule: C[C@@H](O)C1C(=O)N2C(C(=O)O)=C(CN3CC[C@H](NC(=O)CNS(N)(=O)=O)C3)[C@H](C)C12 (stereo partly drawn)
endpoint unit: µg/mL
MIC: 1
--
molecule: CNC(=O)[C@H]1CCN(CC2=C(C(=O)O)N3C(=O)C([C@@H](C)O)C3[C@H]2C)C1 (stereo partly drawn)
endpoint unit: µg/mL
MIC: 1
--
molecule: C[C@@H](O)C1C(=O)N2C(C(=O)O)=C(CN3CC[C@H](C#N)C3)[C@H](C)C12 (stereo partly drawn)
endpoint unit: µg/mL
MIC: 0.25
--
molecule: C[C@@H](O)C1C(=O)N2C(C(=O)O)=C(CN3CC[C@H](NC(=N)N)C3)[C@H](C)C12 (stereo partly drawn)
endpoint unit: µg/mL
MIC: 0.5
--
molecule: C[C@@H](O)C1C(=O)N2C(C(=O)O)=C(CN3CC[C@H](C(N)=O)C3)[C@H](C)C12 (stereo partly drawn)
endpoint unit: µg/mL
MIC: 0.25
--
molecule: C[C@@H](O)[C@H]1C(=O)N2C(C(=O)O)=C(CN3C[C@@H](O)[C@H](NC(=N)N)C3)[C@H](C)[C@H]12
endpoint unit: µg/mL
MIC: 0.5

====

# Tested on: G(−) bacterial strains
# experiment notes: Dilution antimicrobial susceptibility tests (MIC, NCCLS agar dilution / broth dilution)
# Type: cell-based, Gram-negative organisms
# cond: strain #7 Enterobacter aerogenes; unit assumed

compound: C[C@@H](O)C1C(=O)N2C(C(=O)O)=C(CN3CC(C(N)=O)C3)[C@H](C)C12 (stereo partly shown) [Compound 49]
measured on: G(−) bacterial strains
MIC, µg/mL: 0.25
--
compound: C[C@@H](O)C1C(=O)N2C(C(=O)O)=C(CN3CC[C@@H](N)C3)[C@H](C)C12 (stereo partly shown) [Compound 151]
measured on: G(−) bacterial strains
MIC, µg/mL: 2
--
compound: C[C@@H](O)C1C(=O)N2C(C(=O)O)=C(CN3CC[C@H](NC(=N)NS(C)(=O)=O)C3)[C@H](C)C12 (stereo partly shown) [Compound 106]
measured on: G(−) bacterial strains
MIC, µg/mL: 2
--
compound: C[C@@H](O)C1C(=O)N2C(C(=O)O)=C(CN3CC[C@H](N)C3)[C@H](C)C12 (stereo partly shown) [Compound 27]
measured on: G(−) bacterial strains
MIC, µg/mL: 1

====

# System: G(−) bacterial strains
# experiment notes: Dilution antimicrobial susceptibility tests (MIC, NCCLS agar dilution / broth dilution)
# Assay type: cell-based, Gram-negative organisms
# cond: strain #8 Enterobacter cloacae, Cf-R, B+; unit assumed
# Description: The MIC (minimum inhibitory concentration) was determined by the NCCLS (National Committee for Clinical Laboratory Standards) methods 2000. Methods for dilution antimicrobial susceptibility testing for bacteria that growth aerobically (M7-A5, vol. 20, No. 2). The agar dilution method for determining antimicrobial susceptibility was carried out using Mueller-Hinton agar. […] The susceptibilities of streptococci were determined by Mueller-Hinton agar supplemented with 5% sheep blood. […]

molecule: CC(=O)N[C@H]1CCN(CC2=C(C(=O)O)N3C(=O)C([C@@H](C)O)C3[C@H]2C)C1 (some centres unmarked)
endpoint unit: µg/mL
MIC: 1
--
molecule: C[C@@H](O)C1C(=O)N2C(C(=O)O)=C(CN3CC[C@H](C(=O)NC(=N)N)C3)[C@H](C)C12 (some centres unmarked)
endpoint unit: µg/mL
MIC: 0.5
--
molecule: C[C@@H](O)C1C(=O)N2C(C(=O)O)=C(CN3CC[C@@H](C(N)=O)C3)[C@H](C)C12 (some centres unmarked)
endpoint unit: µg/mL
MIC: 0.13
--
molecule: C[C@@H](O)C1C(=O)N2C(C(=O)O)=C(CN3CC[C@H](NC(=N)N)C3)[C@H](C)C12 (some centres unmarked)
endpoint unit: µg/mL
MIC: 0.5
--
molecule: C[C@@H](O)C1C(=O)N2C(C(=O)O)=C(CN3CC(NS(N)(=O)=O)C3)[C@H](C)C12 (some centres unmarked)
endpoint unit: µg/mL
MIC: 0.13
